Source of measurements: patent US20230075138A1

So I've got a bunch of molecules here, and I need their survival rate at 60 days post-diagnosis values.
System: COVID-19
Assay: Kaplan-Meier survival of COVID-19 positive patients hospitalized at the Mayo Clinic, by drug cohort
Format: in vivo, human
Conditions: all hospitalized COVID-19 patients
Express it in %; write the number only.

QUERY: Entry under review: C[C@]12CCC(=O)C=C1CC[C@@H]1[C@@H]2[C@@H](O)C[C@@]2(C)[C@H]1CC[C@]2(O)C(=O)CO [hydrocortisone] . Reported survival rate at 60 days post-diagnosis?
RESULT: 79

QUERY: Any idea what survival rate at 60 days post-diagnosis was measured for C[C@@H]1C[C@H]2[C@@H]3CCC4=CC(=O)C=C[C@]4(C)[C@@]3(F)[C@@H](O)C[C@]2(C)[C@@]1(O)C(=O)CO ?
RESULT: 90

QUERY: Fill in the blank: the reported survival rate at 60 days post-diagnosis of CC[C@H]1OC(=O)[C@H](C)[C@@H](O[C@H]2C[C@@](C)(OC)[C@@H](O)[C@H](C)O2)[C@H](C)[C@@H](O[C@@H]2O[C@H](C)C[C@H](N(C)C)[C@H]2O)[C@](C)(O)C[C@@H](C)CN(C)[C@H](C)[C@@H](O)[C@]1(C)O is ____.
RESULT: 93

QUERY: So what's the measured survival rate at 60 days post-diagnosis for this one? C[C@]12C=CC(=O)C=C1CC[C@@H]1[C@@H]2C(=O)C[C@@]2(C)[C@H]1CC[C@]2(O)C(=O)CO
RESULT: 92
